Provide the recorded pIC50 for the entries that follow.
# Tested on: peripheral blood mononuclear cells (PBMC)
# Procedure summary: Anti-proliferative or immunosuppressive activity, BrdU incorporation in PHA-stimulated PBMC
# Format: cell-based
# Condition info: PHA 3 μg/ml, 60 hour compound treatment; read-out: EMV PBMC IC50
Starred links: 1 amine or outer side, 2 acyl side, 3 side chain; linkers in the order of their positions; H or OH if unused. Non-standard residues stand in square brackets, D forms with d. Residues, ends and D or L forms follow the SMILES beside them. X33 = CC(C)N1CCOC(COC[C@@H](C)[C@@H](C(=O)[*:2])N(C)[*:1])C1; X79 = COCCN1CCN(CC[C@@H](C)[C@@H](C(=O)[*:2])N(C)[*:1])CC1; MeBmt = C/C=C/C[C@@H](C)[C@@H](O)[C@H](NC)C(=O)O; NMeL = CN[C@@H](CC(C)C)C(=O)O; NMeV = CN[C@H](C(=O)O)C(C)C; dNMeA = CN[C@H](C)C(=O)O; Abu = CC[C@H](N)C(=O)O
One number for each entry, as −log10 of the molar value.

Compound: C/C=C/C[C@@H](C)[C@@H](O)[C@H]1C(=O)N[C@@H](CC)C(=O)N(C)[C@H](C)C(=O)N(C)[C@@H]([C@H](C)CCN2CCN(CCOC)CC2)C(=O)N[C@@H](C(C)C)C(=O)N(C)[C@@H](CC(C)C)C(=O)N[C@@H](C)C(=O)N[C@H](C)C(=O)N(C)[C@@H](CC(C)C)C(=O)N(C)[C@@H](CC(C)C)C(=O)N(C)[C@@H](C(C)C)C(=O)N1C [Compound 2.18.3] (cyclo(A[dA][NMeL][NMeL][NMeV][MeBmt][Abu][dNMeA][X79]V[NMeL]))
Target or test system: peripheral blood mononuclear cells (PBMC)
pIC50: 4.95

// moving on: another record for pIC50
### Prompt Return pIC50 (reported value) for this compound: C/C=C/C[C@@H](C)[C@@H](O)[C@H]1C(=O)N[C@@H](CC)C(=O)N(C)[C@H](C)C(=O)N(C)[C@@H]([C@H](C)COCC2CN(C(C)C)CCO2)C(=O)N[C@@H](C(C)C)C(=O)N(C)[C@@H](CC(C)C)C(=O)N[C@@H](C)C(=O)N[C@H](C)C(=O)N(C)[C@@H](CC(C)C)C(=O)N(C)[C@@H](CC(C)C)C(=O)N(C)[C@@H](C(C)C)C(=O)N1C (some centres unmarked) [Compound 2.20.2] (cyclo(A[dA][NMeL][NMeL][NMeV][MeBmt][Abu][dNMeA][X33]V[NMeL]))
### Response 5.19

====

# Target or test system: cyclophilin B (CypB) (Homo sapiens (Human), UniProt P23284)
# Sequence (P23284 34-216): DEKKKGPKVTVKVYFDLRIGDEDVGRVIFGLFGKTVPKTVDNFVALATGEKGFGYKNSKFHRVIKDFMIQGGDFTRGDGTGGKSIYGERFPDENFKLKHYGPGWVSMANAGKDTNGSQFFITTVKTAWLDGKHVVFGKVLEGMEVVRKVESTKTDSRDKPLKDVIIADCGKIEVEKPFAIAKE
# Procedure summary: Inhibitor binding to cyclophilin proteins by SPR, CypB
# Set-up: unit not given here
# Condition info: 1:1 binding model
Starred links: 1 amine or outer side, 2 acyl side, 3 side chain; linkers in the order of their positions; H or OH if unused. Non-standard residues stand in square brackets, D forms with d. Residues, ends and D or L forms follow the SMILES beside them. X74 = C[C@H](CCN1CCN2C(=O)OC[C@@H]2C1)[C@@H](C(=O)[*:2])N(C)[*:1]; X64 = COC[C@@H]1CN(C[C@@H](C)[C@@H](C(=O)[*:2])N(C)[*:1])CCO1; X12 = C[C@@H](CN1CCN(C2CCC2)CC1)[C@@H](C(=O)[*:2])N(C)[*:1]; X79 = COCCN1CCN(CC[C@@H](C)[C@@H](C(=O)[*:2])N(C)[*:1])CC1; X46 = C[C@H](CN1CC2CCC(C1)O2)[C@@H](C(=O)[*:2])N(C)[*:1]; X47 = C[C@H](CN1CCC(F)(F)C1)[C@@H](C(=O)[*:2])N(C)[*:1]; X50 = C[C@H](CN1CCNC(=O)C1)[C@@H](C(=O)[*:2])N(C)[*:1]; MeBmt = C/C=C/C[C@@H](C)[C@@H](O)[C@H](NC)C(=O)O; X77 = COC[C@H](C)[C@@H](C(=O)[*:2])N(C)[*:1]; NMeL = CN[C@@H](CC(C)C)C(=O)O; NMeV = CN[C@H](C(=O)O)C(C)C; dNMeA = CN[C@H](C)C(=O)O; Abu = CC[C@H](N)C(=O)O
Provide the reported CypB Kd of each item.
One number for each entry.

Use the examples below as a reference point.
Molecule: C/C=C/C[C@@H](C)[C@@H](O)[C@H]1C(=O)N[C@@H](CC)C(=O)N(C)[C@H](C)C(=O)N(C)[C@@H]([C@H](C)CN2CCNC(=O)C2)C(=O)N[C@@H](C(C)C)C(=O)N(C)[C@@H](CC(C)C)C(=O)N[C@@H](C)C(=O)N[C@H](C)C(=O)N(C)[C@@H](CC(C)C)C(=O)N(C)[C@@H](CC(C)C)C(=O)N(C)[C@@H](C(C)C)C(=O)N1C [Compound 2.5.30] (cyclo(A[dA][NMeL][NMeL][NMeV][MeBmt][Abu][dNMeA][X50]V[NMeL]))
CypB Kd: 1.0
--
Molecule: C/C=C/C[C@@H](C)[C@@H](O)[C@H]1C(=O)N[C@@H](CC)C(=O)N(C)[C@H](C)C(=O)N(C)[C@@H]([C@H](C)CCN2CCOCC2)C(=O)N[C@@H](C(C)C)C(=O)N(C)[C@@H](CC(C)C)C(=O)N[C@@H](C)C(=O)N[C@H](C)C(=O)N(C)[C@@H](CC(C)C)C(=O)N(C)[C@@H](CC(C)C)C(=O)N(C)[C@@H](C(C)C)C(=O)N1C (stereo in doubt) [Compound 2.18.1]
CypB Kd: 0.8
--
Molecule: C/C=C/C[C@@H](C)[C@@H](O)[C@H]1C(=O)N[C@@H](CC)C(=O)N(C)[C@H](C)C(=O)N(C)[C@@H]([C@H](C)CN2CC3CCC(C2)O3)C(=O)N[C@@H](C(C)C)C(=O)N(C)[C@@H](CC(C)C)C(=O)N[C@@H](C)C(=O)N[C@H](C)C(=O)N(C)[C@@H](CC(C)C)C(=O)N(C)[C@@H](CC(C)C)C(=O)N(C)[C@@H](C(C)C)C(=O)N1C [Compound 2.5.3] (cyclo([MeBmt][Abu][dNMeA][X46]V[NMeL]A[dA][NMeL][NMeL][NMeV]))
CypB Kd: 1.8

// each listed molecule needs a value for CypB Kd
1. C/C=C/C[C@@H](C)[C@@H](O)[C@H]1C(=O)N[C@@H](CC)C(=O)N(C)[C@H](C)C(=O)N(C)[C@@H]([C@H](C)CCN2CCN(CCOC)CC2)C(=O)N[C@@H](C(C)C)C(=O)N(C)[C@@H](CC(C)C)C(=O)N[C@@H](C)C(=O)N[C@H](C)C(=O)N(C)[C@@H](CC(C)C)C(=O)N(C)[C@@H](CC(C)C)C(=O)N(C)[C@@H](C(C)C)C(=O)N1C [Compound 2.18.3] (cyclo(A[dA][NMeL][NMeL][NMeV][MeBmt][Abu][dNMeA][X79]V[NMeL]))
2. C/C=C/C[C@@H](C)[C@@H](O)[C@H]1C(=O)N[C@@H](CC)C(=O)N(C)[C@H](C)C(=O)N(C)[C@@H]([C@H](C)CCN2CCN3C(=O)OC[C@@H]3C2)C(=O)N[C@@H](C(C)C)C(=O)N(C)[C@@H](CC(C)C)C(=O)N[C@@H](C)C(=O)N[C@H](C)C(=O)N(C)[C@@H](CC(C)C)C(=O)N(C)[C@@H](CC(C)C)C(=O)N(C)[C@@H](C(C)C)C(=O)N1C [Compound 2.18.9] (cyclo(A[dA][NMeL][NMeL][NMeV][MeBmt][Abu][dNMeA][X74]V[NMeL]))
3. C/C=C/C[C@@H](C)[C@@H](O)[C@H]1C(=O)N[C@@H](CC)C(=O)N(C)[C@H](C)C(=O)N(C)[C@@H]([C@@H](C)COC)C(=O)N[C@@H](C(C)C)C(=O)N(C)[C@@H](CC(C)C)C(=O)N[C@@H](C)C(=O)N[C@H](C)C(=O)N(C)[C@@H](CC(C)C)C(=O)N(C)[C@@H](CC(C)C)C(=O)N(C)[C@@H](C(C)C)C(=O)N1C [Compound 2.2] (cyclo(A[dA][NMeL][NMeL][NMeV][MeBmt][Abu][dNMeA][X77]V[NMeL]))

### Response
0.6
2.7
0.8

Each of the following entries comes with a recorded value; kindly state CypB Kd for each.
1. C/C=C/C[C@@H](C)[C@@H](O)[C@H]1C(=O)N[C@@H](CC)C(=O)N(C)[C@H](C)C(=O)N(C)[C@@H]([C@H](C)CN2CCC(F)(F)C2)C(=O)N[C@@H](C(C)C)C(=O)N(C)[C@@H](CC(C)C)C(=O)N[C@@H](C)C(=O)N[C@H](C)C(=O)N(C)[C@@H](CC(C)C)C(=O)N(C)[C@@H](CC(C)C)C(=O)N(C)[C@@H](C(C)C)C(=O)N1C [Compound 2.5.18] (cyclo(A[dA][NMeL][NMeL][NMeV][MeBmt][Abu][dNMeA][X47]V[NMeL]))
2. C/C=C/C[C@@H](C)[C@@H](O)[C@H]1C(=O)N[C@@H](CC)C(=O)N(C)[C@H](C)C(=O)N(C)[C@@H]([C@H](C)CN2CCO[C@H](COC)C2)C(=O)N[C@@H](C(C)C)C(=O)N(C)[C@@H](CC(C)C)C(=O)N[C@@H](C)C(=O)N[C@H](C)C(=O)N(C)[C@@H](CC(C)C)C(=O)N(C)[C@@H](CC(C)C)C(=O)N(C)[C@@H](C(C)C)C(=O)N1C [Compound 2.5.34] (cyclo(A[dA][NMeL][NMeL][NMeV][MeBmt][Abu][dNMeA][X64]V[NMeL]))
3. C/C=C/C[C@@H](C)[C@@H](O)[C@H]1C(=O)N[C@@H](CC)C(=O)N(C)[C@H](C)C(=O)N(C)[C@@H]([C@@H](C)CN2CCN(C3CCC3)CC2)C(=O)N[C@@H](C(C)C)C(=O)N(C)[C@@H](CC(C)C)C(=O)N[C@@H](C)C(=O)N[C@H](C)C(=O)N(C)[C@@H](CC(C)C)C(=O)N(C)[C@@H](CC(C)C)C(=O)N(C)[C@@H](C(C)C)C(=O)N1C [Compound 2.17.3] (cyclo(A[dA][NMeL][NMeL][NMeV][MeBmt][Abu][dNMeA][X12]V[NMeL]))

### Response
1: 1.8; 2: 0.6; 3: 0.4
